- Test system: breast cancer cell line MDA-MB-231
- procedureDetails: SRB cell viability assay, breast cancer cell line MDA-MB-231
- Format: cell-based
- settings: MDA-MB-231, 72 hours; read-out: Cell growth inhibition concentration (IC50)
endpointName: pIC50
pIC50 is defined as minus the log10 of a concentration measured in mol/L.

Challenge: Let me know recorded pIC50 for CCCCCCCCC[C@@H](O)CC(=O)N[C@@H](CC(N)=O)C(=O)N[C@@H](CCC(N)=O)C(=O)N[C@@H](CC(=O)c1cc(C)cc(O)c1C(=O)c1c(O)cccc1O)CC(C)C [Asperphenin A] , thanks.
Response given: 5.51

----------
- Tested on: stomach cancer cell line SNU638
- procedureDetails: SRB cell viability assay, stomach cancer cell line SNU638
- Type: cell-based
- settings: Homo sapiens, SNU-638; SNU638, 72 hours; read-out: Cell growth inhibition concentration (IC50)
This listing pairs compounds with measured pIC50.
Expect pIC50 as a plain number equal to -log10 of the molar concentration.

{"compound": "COc1cc([C@@H]2c3cc4c(cc3[C@@H](O[C@@H]3O[C@@H]5CO[C@@H](C)O[C@H]5[C@H](O)[C@H]3O)[C@H]3COC(=O)[C@H]23)OCO4)cc(OC)c1O [Etoposide, etoposide, reference compound]", "pIC50": 6.10}

Then this compound:
Challenge: Indicate its recorded pIC50; the compound in question is `CCCCCCCCC[C@@H](O)CC(=O)N[C@@H](CC(N)=O)C(=O)N[C@@H](CCC(N)=O)C(=O)N[C@H](CC(=O)c1cc(C)cc(O)c1C(=O)c1c(O)cccc1O)CC(C)C`
Response given: 4.93

----------
- Test system: colon cancer cell line HCT116
- procedureDetails: SRB cell viability assay, colon cancer cell line HCT116
- Type: cell-based
- settings: HCT116, 72 hours, Table 3; read-out: Cell growth inhibition concentration (IC50)
endpointName: IC50 (µM)
Just the number please, in µM, no unit attached.

Challenge: Supply IC50 value. Item: CCCCCCCCC[C@@H](O)CC(=O)N[C@@H](CC(N)=O)C(=O)N[C@@H](CCC(N)=O)C(=O)N[C@@H](CC(=O)c1cc(C)cc(O)c1C(=O)c1c(O)cccc1O)CC(C)C [Asperphenin A]
Response given: 1.7

----------
- Tested on: colon cancer cell line SW480
- procedureDetails: SRB cell viability assay, colon cancer cell line SW480
- Assay type: cell-based
- settings: Homo sapiens, read-out: Growth inhibition value of cancer cell (IC50)
endpointName: IC50 (µM)
State the answer as a number, implicitly in µM.

Challenge: Identify the reported IC50 for the following entry. `CCCCCCCCC[C@@H](O)CC(=O)N[C@@H](CC(N)=O)C(=O)N[C@@H](CCC(N)=O)C(=O)N[C@H](CC(=O)c1cc(C)cc(O)c1C(=O)c1c(O)cccc1O)CC(C)C`
Response given: 31.4

----------
- System: colon cancer cell line HCT116
- procedureDetails: SRB cell viability assay, colon cancer cell line HCT116
- Type: cell-based
- settings: Homo sapiens, HCT-116; HCT116, Table 4; read-out: Growth inhibition value of cancer cell (IC50)
endpointName: pIC50
Entry type: numeric. Quantity: pIC50, the -log10 of concentration in molar units.

{"compound": "CC(=O)O[C@H]1C(=O)[C@@]2(C)[C@H]([C@H](OC(=O)c3ccccc3)[C@]3(O)C[C@H](OC(=O)[C@H](O)[C@@H](NC(=O)c4ccccc4)c4ccccc4)C(C)=C1C3(C)C)[C@]1(OC(C)=O)CO[C@@H]1C[C@@H]2O [Paclitaxel, paclitaxel, reference compound]", "pIC50": 9.38}

Turning now to a further compound:
Challenge: Report pIC50, nothing else, for this compound: CCCCCCCCC[C@@H](O)CC(=O)N[C@@H](CC(N)=O)C(=O)N[C@@H](CCC(N)=O)C(=O)N[C@H](CC(=O)c1cc(C)cc(O)c1C(=O)c1c(O)cccc1O)CC(C)C [Asperphenin B]
Response given: 5.39

Cited source for all entries: patent US10759831B2
